Just for reference, PubChem BioAssay (NCATS) is where these values come from.

- assayed_system: Rap guanine nucleotide exchange factor 4 (Homo sapiens) (UniProt Q8WZA2)
- Sequence (Q8WZA2 whole entry, looked up): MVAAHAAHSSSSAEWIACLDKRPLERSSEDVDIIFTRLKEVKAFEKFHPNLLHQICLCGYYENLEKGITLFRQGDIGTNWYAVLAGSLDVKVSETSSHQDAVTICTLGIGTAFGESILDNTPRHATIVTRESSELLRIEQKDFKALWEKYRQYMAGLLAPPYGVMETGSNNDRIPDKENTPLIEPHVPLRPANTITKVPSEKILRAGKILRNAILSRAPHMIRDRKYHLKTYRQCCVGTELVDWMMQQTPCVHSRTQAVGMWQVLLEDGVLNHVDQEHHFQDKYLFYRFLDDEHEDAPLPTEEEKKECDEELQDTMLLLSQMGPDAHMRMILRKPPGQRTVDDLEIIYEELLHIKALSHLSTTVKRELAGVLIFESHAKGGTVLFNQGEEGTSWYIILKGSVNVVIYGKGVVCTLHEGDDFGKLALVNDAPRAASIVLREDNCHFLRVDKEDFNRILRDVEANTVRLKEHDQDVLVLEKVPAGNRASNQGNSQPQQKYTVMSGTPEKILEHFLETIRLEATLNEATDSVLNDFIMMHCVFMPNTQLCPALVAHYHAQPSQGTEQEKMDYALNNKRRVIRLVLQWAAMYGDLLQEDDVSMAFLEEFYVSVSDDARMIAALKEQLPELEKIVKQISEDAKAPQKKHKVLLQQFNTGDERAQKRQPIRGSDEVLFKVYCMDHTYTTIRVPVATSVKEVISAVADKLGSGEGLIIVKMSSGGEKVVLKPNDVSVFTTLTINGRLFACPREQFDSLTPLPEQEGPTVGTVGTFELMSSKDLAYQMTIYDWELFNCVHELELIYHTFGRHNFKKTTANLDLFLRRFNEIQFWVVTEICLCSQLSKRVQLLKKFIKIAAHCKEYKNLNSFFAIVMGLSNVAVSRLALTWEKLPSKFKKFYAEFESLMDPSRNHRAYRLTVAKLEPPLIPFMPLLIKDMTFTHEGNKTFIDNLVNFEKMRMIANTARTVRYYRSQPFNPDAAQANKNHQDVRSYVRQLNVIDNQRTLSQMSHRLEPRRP
- experiment_notes: Confirmatory qHTS for antagonist of cAMP-regulated guanine nucleotide exchange factor 4 (EPAC2) (AID 1645885); also: nearly all actives have a fitted effect of over 25% in size
- experimental_setup: EPAC2 Rap1B-BODIPY-GDP exchange fluorescence, biochemical; series mostly up to 12.7 µM
Results filed as inconclusive are left out. Activity calls are given as the source filed them. Calls follow the shape of the dose curve; as a rule, active = well fitted inhibition curve with a large enough effect; inconclusive = small, poorly fitted or top-dose-only effect; inactive = no such curve, though single readings can be large or run the other way.
Outcomes: active, inactive

| molecule | assigned_class |
| --- | --- |
| CCN(CC)c1nc2ccccc2n(Cc2cccc(OC)c2)c1=O | inactive |
| O=C(O)C(Cc1c[nH]c2ccccc12)NS(=O)(=O)c1ccc2ccccc2c1 (stereo not given) | inactive |
| O=C(N/N=C/c1cc(Cl)cc([N+](=O)[O-])c1O)NC12CC3CC(CC(C3)C1)C2 | inactive |
| CC(C)CC1C(=O)N(Cc2cn(Cc3ccco3)nn2)CCS(=O)(=O)N1Cc1ccc(-c2ccccc2)cc1 (stereo not given) | active |
| Oc1ccccc1CNc1ccc(OC(F)(F)F)cc1 | inactive |
| COc1ccc(OC)c(/C=C/c2nc3ccccc3[nH]c2=O)c1 | active |
| Cc1nnc(-c2ccco2)c2cn(-c3cccc(Br)c3)nc12 | inactive |
| O=C(NC1(O)C(=O)c2ccccc2C1=O)c1ccc(C(F)(F)F)cc1 | inactive |
| CN(c1ccccc1)c1ccc(/C=C(/CCC(=O)O)c2nc3ccccc3s2)cc1[N+](=O)[O-] | inactive |
| COC(=O)c1ccc2c(=O)n(CCCCCC(=O)N3CCN(c4cc(C)ccc4C)CC3)c(=O)[nH]c2c1 | inactive |

###

- assayed_system: Rap guanine nucleotide exchange factor 4 (Homo sapiens) (UniProt Q8WZA2)
- experiment_notes: Confirmatory qHTS for agonist of cAMP-regulated guanine nucleotide exchange factor 4 (EPAC2) (AID 1645884);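 also: nucleotide exchange releases bodipy-GDP from Rap1 and this lowers its fluorescence; nearly all actives have a fitted effect of over 65% in size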
- experimental_setup: EPAC2 GEF activity, Rap1B-BODIPY-GDP fluorescence; series mostly up to 154 µM
Records with an inconclusive call do not appear. Calls of active or inactive are those of the source. Calls come from the whole dose curve; as a rule, active = well fitted activation curve with a large enough effect; inconclusive = small, poorly fitted or top-dose-only effect; inactive = no such curve, though single readings can be large or run the other way.
quantity: activation

| compound | assayed_system | quantity | data_value |
| --- | --- | --- | --- |
| O=C(CN(Cc1ccco1)C(=O)c1ccc(Cl)cc1)Nc1c(Cl)cc(Cl)cc1Cl | Rap guanine nucleotide exchange factor 4 (Homo sapiens) (UniProt Q8WZA2) | activation | inactive |
| Cc1ccc(OCC(=O)Nc2ccc(Cl)c(-c3nc4ccccc4[nH]3)c2)cc1C | Rap guanine nucleotide exchange factor 4 (Homo sapiens) (UniProt Q8WZA2) | activation | inactive |
| Nc1[nH]n2c(=O)cc(-c3ccccc3)nc2c1N=Nc1ccc(S(N)(=O)=O)cc1 | Rap guanine nucleotide exchange factor 4 (Homo sapiens) (UniProt Q8WZA2) | activation | inactive |
| Oc1c(Br)cc(Br)cc1CNc1cccc2cccnc12 | Rap guanine nucleotide exchange factor 4 (Homo sapiens) (UniProt Q8WZA2) | activation | inactive |
| CCn1c(=O)c(C(=O)Nc2ccccc2S(N)(=O)=O)c(O)c2ccccc21 | Rap guanine nucleotide exchange factor 4 (Homo sapiens) (UniProt Q8WZA2) | activation | inactive |
| Cc1ccc(CNC(=O)c2c[nH]n3c(=O)c(Cc4ccc(F)cc4Cl)c(C)nc23)cc1 | Rap guanine nucleotide exchange factor 4 (Homo sapiens) (UniProt Q8WZA2) | activation | inactive |
| CC(C)n1c(CNC(=O)c2ccccc2F)nnc1SCC(=O)NC1CCCCC1 | Rap guanine nucleotide exchange factor 4 (Homo sapiens) (UniProt Q8WZA2) | activation | inactive |
| COc1ccccc1/C=C/C=c1\sc2nc(=O)c(Cc3ccccc3)nn2c1=O | Rap guanine nucleotide exchange factor 4 (Homo sapiens) (UniProt Q8WZA2) | activation | inactive |
| CCOC(=O)c1c(C)[nH]c(C)c1C(=O)COC(=O)c1cc(OC)cc(OC)c1 | Rap guanine nucleotide exchange factor 4 (Homo sapiens) (UniProt Q8WZA2) | activation | inactive |
| CN(C)c1ccc(-c2[nH][nH]c(=O)c2NC(=O)c2ccccn2)cc1 | Rap guanine nucleotide exchange factor 4 (Homo sapiens) (UniProt Q8WZA2) | activation | inactive |
| COc1ccc(O)c(C(=O)c2cc(SCC(=O)O)c3nc4sc5c(c4c(=O)n3c2)CCCC5)c1 | Rap guanine nucleotide exchange factor 4 (Homo sapiens) (UniProt Q8WZA2) | activation | inactive |
| CN(c1ccccc1)c1nc(N)c([N+](=O)[O-])c(N2CCCCC2)n1 | Rap guanine nucleotide exchange factor 4 (Homo sapiens) (UniProt Q8WZA2) | activation | inactive |
| COc1cc(NC2c3ncccc3C(=O)N2Cc2ccco2)cc(OC)c1 (configuration not stated) | Rap guanine nucleotide exchange factor 4 (Homo sapiens) (UniProt Q8WZA2) | activation | inactive |
| O=C(COC(=O)C1(c2ccc(Cl)cc2)CCCC1)NCc1ccco1 | Rap guanine nucleotide exchange factor 4 (Homo sapiens) (UniProt Q8WZA2) | activation | inactive |
| COc1cc(/C=C/C(=O)c2ccc3c(c2)OCCO3)cc(Br)c1OCC(=O)N(C)C | Rap guanine nucleotide exchange factor 4 (Homo sapiens) (UniProt Q8WZA2) | activation | inactive |
| N#CCC(=O)N/N=C/c1coc2ccccc2c1=O | Rap guanine nucleotide exchange factor 4 (Homo sapiens) (UniProt Q8WZA2) | activation | inactive |
| COC(=O)C1=CN(Cc2cccs2)C=C(C(=O)OC)C1c1cccc(O)c1 | Rap guanine nucleotide exchange factor 4 (Homo sapiens) (UniProt Q8WZA2) | activation | inactive |
| CC(=O)Nc1cccc(C(=O)/C=C/c2ccc(F)cc2)c1 | Rap guanine nucleotide exchange factor 4 (Homo sapiens) (UniProt Q8WZA2) | activation | inactive |
| COc1ccc(NC(=O)COC(=O)c2ccc(S(=O)(=O)N(C)c3ccccc3OC)cc2)cc1OC | Rap guanine nucleotide exchange factor 4 (Homo sapiens) (UniProt Q8WZA2) | activation | inactive |
| COc1cc(NC(=O)c2ccnc(N)c2)cc(C(=O)Nc2cccc(C(F)(F)F)c2)c1 | Rap guanine nucleotide exchange factor 4 (Homo sapiens) (UniProt Q8WZA2) | activation | inactive |
| CCN1CCc2c(sc(NC(=O)CSc3ccccc3)c2-c2nc3ccccc3s2)C1 | Rap guanine nucleotide exchange factor 4 (Homo sapiens) (UniProt Q8WZA2) | activation | inactive |
| CCc1cccc(NC(=O)COC(=O)/C=C/c2cccs2)c1 | Rap guanine nucleotide exchange factor 4 (Homo sapiens) (UniProt Q8WZA2) | activation | inactive |
| Cc1ccc([N+](=O)[O-])cc1S(=O)(=O)N1CCC(C)CC1 | Rap guanine nucleotide exchange factor 4 (Homo sapiens) (UniProt Q8WZA2) | activation | inactive |
| COc1ccc(OC)c(C(=O)/C=C/c2ccccc2C(F)(F)F)c1 | Rap guanine nucleotide exchange factor 4 (Homo sapiens) (UniProt Q8WZA2) | activation | inactive |
| CCOC(=O)c1ccccc1NC(=O)c1c(C)oc2ncnc(N3CCOCC3)c12 | Rap guanine nucleotide exchange factor 4 (Homo sapiens) (UniProt Q8WZA2) | activation | inactive |
